- System: HeLa
- Protocol description: Cytotoxicity against human HeLa cells assessed as reduction in cell viability by Almar Blue stained fluorescence-based assay
- Format: functional
Measurement label: IC50 (µM)
# number only, unit µM dropped from output

**Query** Please report the recorded IC50 for CCN(CC)/[N+]([O-])=N/OCc1cc2ccc(B3OC(C)(C)C(C)(C)O3)cc2oc1=O .
**Result** 10

* * *

- Test system: NIH3T3
- Protocol description: Antiproliferative activity against mouse NIH3T3 cells assessed as reduction in cell viability
- Format: functional, cell-based
Measurement label: pIC50
Note on pIC50: it is the negative log10 of concentration, concentration in mol/L.

**Query** Please report the recorded pIC50 for CC1(COC(=O)OCc2ccc(B3OCCCO3)cc2)COC(/C=C/c2ccccc2)OC1 (stereo unspecified) .
**Result** 3.74

Values compiled from ChEMBL document CHEMBL5230107.
